# targetEntity: purified HLA DRB1*0301 (Homo sapiens, UniProt P01903+P01911, A100K/A102G/A103R/A169T/F55Y/I96L/K41T/L162R/M171V/P40S/Q125H/Q178H/Q39Y/R42S/S66N/T106N/T262R/W38E/Y61H)
# Construct: purified from EBV transformed homozygous cell lines or single MHC allele transfected 721.221, C1R, or fibroblast lines; made in house
# assayExplanation: HLA-DR radioligand binding inhibition assay, DRB1*0301
# conditionDescription: IC50 nM purified HLA DRB1 *0301, purified HLA DRB1*0301
Ends that are not written are not given here.
measure: IC50 (nM)

(A) EELLQMELLLVNKLK [Peptide 9019.0010]
(B) WNLAAMTPHDFIEHF [Peptide 9019.0013]
Q) Which record would sort first by descending IC50, A or B ? Your answer should be the label of the entry you select.
A) B

====

# targetEntity: purified HLA DRB1*0405 (Homo sapiens, UniProt P01903+P01911, A100R/A169T/D86S/F76Y/I96L/K127E/L162R/M171V/N62H/P40V/Q125Y/R42H/S133A/S149N/S66Y/V115G/V209L/W38E)
# Construct: purified from EBV transformed homozygous cell lines or single MHC allele transfected 721.221, C1R, or fibroblast lines; made in house
# assayExplanation: HLA-DR radioligand binding inhibition assay, DRB1*0405
# conditionDescription: IC50 nM purified HLA DRB1 *0405, purified HLA DRB1*0405
measure: IC50 (nM)
Could you give me the number in nM? Just the number is fine.

Q) Please look at this compound and report its IC50: CSCC[C@H](NC(=O)[C@@H](NC(=O)[C@H](Cc1ccc(O)cc1)NC(=O)[C@H](C)N)C(C)C)C(=O)N[C@@H](C)C(=O)NCC(=O)N[C@H](C(=O)NCC(=O)N[C@@H](CO)C(=O)N1CCC[C@H]1C(=O)N[C@@H](Cc1ccc(O)cc1)C(=O)N[C@H](C(=O)N[C@@H](CO)C(=O)N[C@@H](CCCNC(=N)N)C(=O)N[C@@H](CC(C)C)C(=O)O)C(C)C)C(C)C [Peptide 9019.0077]
A) 596

====

# Tested on: 15 different HLA-DR molecules
# assayExplanation: HLA-DR binding assays, panel of 15 different HLA-DR molecules (breadth of binding)
# conditionDescription: number of the 15 HLA-DR molecules bound (binders: 1000 nM or better)
measure: Total XRN
Reply with just the number.

Q) Hello, please tell me recorded Total XRN for this one: CC[C@H](C)[C@H](NC(=O)[C@H](Cc1c[nH]cn1)NC(=O)[C@H](CC(C)C)NC(=O)[C@H](CO)NC(=O)[C@H](Cc1ccc(O)cc1)NC(=O)[C@H](CC(C)C)NC(=O)[C@H](Cc1c[nH]cn1)NC(=O)[C@H](CCC(=O)O)NC(=O)[C@H](CC(C)C)NC(=O)[C@@H]1CCCN1C(=O)CNC(=O)[C@H](CCCNC(=N)N)NC(=O)[C@@H](N)CCC(=O)O)C(=O)N1CCC[C@H]1C(=O)N[C@@H](CC(N)=O)C(=O)O [Peptide 9019.0190, EROPLEHLYSLHIPN]
A) 8

====

Recorded IC50 for the following compounds
# targetEntity: purified HLA DRB1*0404 (Homo sapiens, UniProt P01903+P01911, A100R/A169T/F76Y/I96L/K127E/L162R/M171V/N62H/P40V/Q125Y/R42H/S133A/S149N/S66Y/V209L/W38E)
# Construct: purified from EBV transformed homozygous cell lines or single MHC allele transfected 721.221, C1R, or fibroblast lines; made in house
# assayExplanation: HLA-DR radioligand binding inhibition assay, DRB1*0404
# conditionDescription: IC50 nM purified HLA DRB1 *0404, purified HLA DRB1*0404
# Description: Instead, wells of an opaque white 96-well Optiplate (Packard) are coated with 3 μg (100 μl@ 30 μg/ml) of HLA-specific antibody (Ab) that “capture” complexes of radiolabeled MHC and unlabeled peptide transferred from the molecular binding assay plate in 100 μl of 0.05% NP40/PBS. […] Captured complexes are then measured on a microplate scintillation and luminescence counter (TopCount NXTTM; Packard). […]
Number in nM, nothing else.

Example compounds with recorded IC50:
compound	measure	valueObserved
CC(C)C[C@H](NC(=O)[C@H](CC(C)C)NC(=O)[C@H](CCC(N)=O)NC(=O)[C@H](CC(C)C)NC(=O)[C@H](CCCNC(=N)N)NC(=O)[C@H](CO)NC(=O)[C@H](CCCCN)NC(=O)[C@H](CCCCN)NC(=O)[C@@H](NC(=O)[C@@H]1CCCN1C(=O)[C@H](CCC(=O)O)NC(=O)[C@@H](N)CC(C)C)C(C)C)C(=O)NCC(=O)N[C@@H](C)C(=O)N[C@H](C(=O)O)[C@@H](C)O [Peptide 9019.0155]	IC50	695
CC(C)C[C@H](NC(=O)[C@@H](NC(=O)[C@H](CCCNC(=N)N)NC(=O)[C@H](CS)NC(=O)[C@@H](N)CCC(=O)O)C(C)C)C(=O)N[C@@H](CCC(N)=O)C(=O)NCC(=O)N[C@@H](CC(C)C)C(=O)N1CCC[C@H]1C(=O)N[C@@H](CCCNC(=N)N)C(=O)N[C@@H](CCC(=O)O)C(=O)N[C@@H](Cc1ccc(O)cc1)C(=O)N[C@H](C(=O)N[C@@H](CC(N)=O)C(=O)N[C@@H](C)C(=O)O)C(C)C [Peptide 9019.0063]	IC50	9350
CC[C@H](C)[C@H](NC(=O)CNC(=O)[C@H](CS)NC(=O)[C@@H](N)C(C)C)C(=O)N[C@@H](CCC(N)=O)C(=O)N[C@@H](CC(N)=O)C(=O)N[C@@H](CO)C(=O)N[C@H](C(=O)N[C@@H](CO)C(=O)N[C@@H](C)C(=O)N[C@@H](CC(N)=O)C(=O)N[C@@H](CCCNC(=N)N)C(=O)N[C@@H](CO)C(=O)N[C@@H](CC(=O)O)C(=O)N1CCC[C@H]1C(=O)O)C(C)C [Peptide 9019.0135]	IC50	26

Continue with the compound presented below.
Q) Consider the compound CC(C)C[C@H](NC(=O)[C@H](CCC(=O)O)NC(=O)[C@H](CCCNC(=N)N)NC(=O)[C@H](CC(C)C)NC(=O)CNC(=O)CNC(=O)[C@@H]1CCCN1C(=O)[C@H](CO)NC(=O)[C@H](C)NC(=O)CNC(=O)[C@@H](NC(=O)[C@@H](NC(=O)[C@@H]1CCCN1C(=O)[C@@H](NC(=O)[C@@H](N)[C@@H](C)O)[C@@H](C)O)C(C)C)[C@@H](C)O)C(=O)O [Peptide 9019.0037] and give its recorded IC50.
A) 675

====

The entries below come with measured IC50 values attached.
# targetEntity: purified HLA DRB1*0401 (Homo sapiens, UniProt P01903+P01911, A100K/A169T/F76Y/I96L/K127E/L162R/M171V/N62H/P40V/Q125Y/R42H/S133A/S149N/S66Y/V115G/V209L/W38E)
# Construct: purified from EBV transformed homozygous cell lines or single MHC allele transfected 721.221, C1R, or fibroblast lines; made in house
# assayExplanation: HLA-DR radioligand binding inhibition assay, DRB1*0401
# conditionDescription: IC50 nM purified HLA DRB1 *0401, purified HLA DRB1*0401
Give your result in nM as a bare value.

# count of solved cases: 2
molecule	unitSpec	IC50
CC(C)C[C@H](NC(=O)[C@H](CC(N)=O)NC(=O)CNC(=O)[C@H](CCC(N)=O)NC(=O)[C@@H](NC(=O)[C@@H](NC(=O)[C@H](CCC(N)=O)NC(=O)[C@H](CS)NC(=O)CN)C(C)C)C(C)C)C(=O)N[C@@H](CCC(=O)O)C(=O)N[C@@H](CC(C)C)C(=O)N[C@H](C(=O)N[C@@H](Cc1ccc(O)cc1)C(=O)N[C@@H](CC(C)C)C(=O)N1CCC[C@H]1C(=O)O)[C@@H](C)O [Peptide 9019.0029]	nM	2740
CC(C)C[C@H](NC(=O)CNC(=O)[C@H](CO)NC(=O)[C@@H](N)CC(N)=O)C(=O)N[C@@H](Cc1ccc(O)cc1)C(=O)N[C@H](C(=O)N[C@@H](CS)C(=O)N[C@@H](CCC(N)=O)C(=O)N[C@@H](C)C(=O)N[C@@H](CC(N)=O)C(=O)N[C@@H](CC(N)=O)C(=O)N[C@@H](CO)C(=O)N[C@@H](C)C(=O)N[C@@H](CO)C(=O)NCC(=O)O)[C@@H](C)O [Peptide 9019.0130]	nM	33

Alright, here's another molecule for you.
Q) Please give measured IC50 of the following entry: CC[C@H](C)[C@H](NC(=O)[C@H](CS)NC(=O)[C@H](Cc1c[nH]c2ccccc12)NC(=O)[C@@H](N)CCCNC(=N)N)C(=O)N1CCC[C@H]1C(=O)N[C@@H](Cc1c[nH]c2ccccc12)C(=O)N[C@@H](CCC(N)=O)C(=O)N[C@@H](CCCNC(=N)N)C(=O)N[C@@H](CC(C)C)C(=O)N[C@@H](CC(C)C)C(=O)N[C@@H](CC(C)C)C(=O)N[C@H](C(=O)N[C@@H](C)C(=O)N[C@@H](CO)C(=O)N[C@@H](CC(C)C)C(=O)O)[C@@H](C)O [Peptide 9019.0104]
A) 426
